These measurements were taken from patent US20230089867A1.

Here, each record is paired with measured Max % inhibition data.
Assayed Target: human PCSK9 (Homo sapiens, UniProt Q8NBP7)
Sequence (Q8NBP7 153-692): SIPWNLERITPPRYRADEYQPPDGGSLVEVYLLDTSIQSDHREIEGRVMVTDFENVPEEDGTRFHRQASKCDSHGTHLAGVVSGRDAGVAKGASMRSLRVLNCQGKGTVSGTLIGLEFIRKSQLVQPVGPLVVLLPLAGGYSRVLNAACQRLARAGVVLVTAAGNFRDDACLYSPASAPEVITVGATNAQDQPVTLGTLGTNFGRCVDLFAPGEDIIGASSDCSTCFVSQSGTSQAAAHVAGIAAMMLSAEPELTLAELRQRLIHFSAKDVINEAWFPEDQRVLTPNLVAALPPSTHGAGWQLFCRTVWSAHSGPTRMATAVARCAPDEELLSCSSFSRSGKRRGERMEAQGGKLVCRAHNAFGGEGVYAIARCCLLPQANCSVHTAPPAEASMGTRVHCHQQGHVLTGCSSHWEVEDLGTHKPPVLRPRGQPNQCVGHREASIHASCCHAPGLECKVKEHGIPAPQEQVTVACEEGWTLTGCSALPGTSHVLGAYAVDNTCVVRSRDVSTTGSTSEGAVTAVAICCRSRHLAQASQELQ
Sequence (Q8NBP7 31-152 partner limits assumed): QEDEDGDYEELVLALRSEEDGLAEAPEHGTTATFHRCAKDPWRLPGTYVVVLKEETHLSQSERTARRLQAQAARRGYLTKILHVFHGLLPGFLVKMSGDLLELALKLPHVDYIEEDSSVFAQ
Procedure Text: PCSK9 ligand binding TR-FRET assay (interference with binding of human PCSK9 to human LDLR)
Experimental Setup: PCSK9 FRET assay, efficacy (Amax); 100% = 1 uM unlabeled human PCSK9, 0% = DMSO
Numbers only here, please. The scale is %.

// below: answered compounds
>>> observed_result("COC[C@@H]1NC(=O)[C@H](C)N(Cc2ccc(Cl)cc2Oc2ccc(-c3cnc(CN(C)C)n3C)cc2)C(=O)C[C@@H](Cn2cccn2)C(=O)N(C)[C@H]2CCCC[C@@H]2NC(=O)C[C@H](Cc2ccc(Cl)cc2)N(C)C1=O")
98.40
>>> observed_result("COC[C@H]1CNC(=O)C[C@H](Cc2ccc(Cl)cc2)N(C)C(=O)[C@H](COC)NC(=O)[C@H](C)N(Cc2ccc(Cl)cc2Oc2ccc(-c3cnc(CN(C)C)n3C)cc2)C(=O)C[C@@H](Cc2ccccc2)C(=O)N1C")
101.53
>>> observed_result("COC[C@@H]1NC(=O)[C@H](C)N(Cc2ccc(Cl)cc2Oc2ccc(-c3cnc(CN(C)C)n3C)cc2)C(=O)CC(Cn2ccccc2=O)C(=O)N(C)[C@H]2CCCC[C@@H]2NC(=O)C[C@H](Cc2ccc(Cl)cc2)N(C)C1=O (stereo partly shown) [Compound 276]")
101.53

In the following, a different compound is considered.
Name the reported Max % inhibition value associated with the compound C[C@H]1CNC(=O)C[C@H](Cc2ccc(Cl)cc2)N(C)C(=O)[C@H](CO)NC(=O)[C@H](C)N(Cc2ccc(Cl)cc2Oc2ccc(-c3cnc(CN(C)C)n3C)cc2)C(=O)C[C@@H](Cc2ccccc2)C(=O)N1C 100.91

* * *

Assayed Target: human PCSK9 (Homo sapiens)
Procedure Text: PCSK9 ligand binding TR-FRET assay (interference with binding of human PCSK9 to human LDLR)
Experimental Setup: TR-FRET; human PCSK9 Alexa Fluor 647 / human LDLR extracellular domain-Europium Kryptate; read-out: PCSK9 FRET Assay IC50
Measured log10(IC50), listed per entry for reference.
All values: base-10 log of IC50 in nM.

These solved cases illustrate the format of a correct answer.
>>> observed_result("COC[C@@H]1NC(=O)[C@H](C)N(Cc2ccc(Cl)cc2Oc2ccc(-n3cc(CN4CCCCC4)nn3)cc2)C(=O)C[C@@H](Cc2ccccc2)C(=O)N(C)[C@@H](C)CNC(=O)C[C@H](Cc2ccc(Cl)cc2)N(C)C1=O")
1.31
>>> observed_result("CCn1c(-c2ccc(Oc3cc(Cl)ccc3CN3C(=O)C[C@@H](Cc4ccccc4)C(=O)N(C)[C@@H](C)CNC(=O)C[C@H](Cc4ccc(Cl)cc4)N(C)C(=O)[C@H](COC)NC(=O)[C@@H]3C)cc2)cnc1CN1CCCC1")
0.32
>>> observed_result("COC[C@@H]1NC(=O)[C@H](C)N(Cc2ccc(Cl)cc2Oc2ccc(-c3cnc(CN(C)C)n3C)cc2)C(=O)C[C@@H](Cc2ccccc2)C(=O)N(C)C[C@H](C)NC(=O)C[C@H](Cc2ccc(Cl)cc2)N(C)C1=O")
0.26

Provide the documented log10(IC50) with human PCSK9 (Homo sapiens) as the system for COC[C@@H]1NC(=O)[C@H](C)N(Cc2ccc(Cl)cc2Oc2ccc(-c3cnc4c(c3)CN(C(=O)[C@H]3CCNC3)CC4)cc2)C(=O)C[C@@H](Cc2ccccc2)C(=O)N(C)[C@@H](C)CNC(=O)C[C@H](Cc2ccc(Cl)cc2)N(C)C1=O 0.63

Item COC[C@@H]1NC(=O)[C@H](C)N(Cc2ccc(Cl)cc2Oc2ccc(-c3cnc(CN4CCCC4)n3C)cc2)C(=O)C[C@@H](Cc2cccc(F)c2F)C(=O)N(C)[C@@H](C)CNC(=O)C[C@H](Cc2ccc(Cl)cc2)N(C)C1=O with human PCSK9 (Homo sapiens) - log10(IC50)? -0.22

* * *

Assayed Target: human PCSK9 (Homo sapiens, UniProt Q8NBP7)
Procedure Text: PCSK9 ligand binding TR-FRET assay (interference with binding of human PCSK9 to human LDLR)
Experimental Setup: TR-FRET; human PCSK9 Alexa Fluor 647 / human LDLR extracellular domain-Europium Kryptate; read-out: PCSK9 FRET Assay IC50
IC50 for assorted compounds
Express your answer in nM, writing the number without its unit.

Example compounds with recorded IC50:
>>> observed_result("COC[C@@H]1NC(=O)[C@H](C)N(Cc2ccc(Cl)cc2Oc2ccc(-c3cnc(CN4CCCC4)n3C)cc2)C(=O)C[C@@H](Cc2ccccc2)C(=O)N(C)[C@@H](CCN(C)C)CNC(=O)C[C@H](Cc2ccc(Cl)cc2)N(C)C1=O")
32.6
>>> observed_result("CCOC[C@@H]1NC(=O)[C@H](C)N(Cc2ccc(Cl)cc2Oc2ccc(-c3cnc(CN(C)C)n3C)cc2)C(=O)C[C@@H](C)C(=O)N(C)[C@@H](C)CNC(=O)C[C@H](Cc2ccc(Cl)cc2)N(C)C1=O.O=CO [Compound 53, formate]")
21.1

What does the data say about its IC50? Entry: C[C@H]1CNC(=O)C[C@H](Cc2ccc(Cl)cc2)N(C)C(=O)[C@H](CO)NC(=O)[C@H](C)N(Cc2ccccc2Oc2ccc(-c3cnc(CN(C)C)n3C)cc2)C(=O)CCC(=O)N1C 77.2

* * *

Assayed Target: human PCSK9 (Homo sapiens)
Procedure Text: PCSK9 ligand binding TR-FRET assay (interference with binding of human PCSK9 to human LDLR)
Experimental Setup: TR-FRET; human PCSK9 Alexa Fluor 647 / human LDLR extracellular domain-Europium Kryptate; read-out: PCSK9 FRET Assay IC50
Mark true (1) for IC50 under 2 nM, false (0) if at or over.

Observe how each entry below is paired with its result.
>>> classification("COC[C@@H]1NC(=O)[C@H](C)N(Cc2ccc(Cl)cc2Oc2ccc(-c3cnc(CN(C)C)n3C)cc2)C(=O)C[C@H](Cn2cccn2)C(=O)N(C)[C@H]2CCCC[C@@H]2NC(=O)C[C@H](Cc2ccc(Cl)cc2)N(C)C1=O")
"false (0)"
>>> classification("COC[C@@H]1NC(=O)[C@H](C)N(Cc2ccc(Cl)cc2Oc2ccc(-c3cnc([C@@H](C)N(C)C)n3C)cc2)C(=O)C[C@@H](Cc2ccccc2)C(=O)N(C)[C@H]2CCCC[C@@H]2NC(=O)C[C@H](Cc2ccc(Cl)cc2)N(C)C1=O")
"true (1)"
>>> classification("COC[C@@H]1NC(=O)[C@H](C)N(Cc2ccc(Cl)cc2Oc2ccc(-c3cnc(CN4CCC4)n3C)cc2)C(=O)C[C@@H](Cc2ccccc2)C(=O)N(C)[C@@H](C)CNC(=O)C[C@H](Cc2ccc(Cl)cc2)N(C)C1=O")
"true (1)"
>>> classification("C=CC[C@@H]1CC(=O)N(Cc2ccc(C)cc2Oc2ccc(-c3cnc(CN(C)C)n3C)cc2)[C@@H](C)C(=O)N[C@@H](COC)C(=O)N(C)[C@@H](Cc2ccc(Cl)cc2)CC(=O)N[C@@H](C)[C@H](C)N(C)C1=O")
"true (1)"
>>> classification("COC[C@@H]1NC(=O)[C@H](CCCCN(C)C)N(Cc2ccc(Cl)cc2Oc2ccc(-c3cnc(CN(C)C)n3C)cc2)C(=O)C[C@@H](Cc2ccccc2)C(=O)N(C)[C@@H](C)CNC(=O)C[C@H](Cc2ccc(Cl)cc2)N(C)C1=O")
"false (0)"
>>> classification("COC[C@@H]1NC(=O)[C@@H](COC)N(Cc2ccc(Cl)cc2Oc2ccc(-c3cnc(CN(C)C)n3C)cc2)C(=O)C[C@@H](Cc2ccccc2)C(=O)N(C)[C@H]2CCCC[C@@H]2NC(=O)C[C@H](Cc2ccc(Cl)cc2)N(C)C1=O")
"false (0)"
>>> classification("COCC(=O)N1CCn2c(nnc2-c2ccc(Oc3cc(Cl)ccc3CN3C(=O)C[C@@H](Cc4ccccc4)C(=O)N(C)[C@@H](C)CNC(=O)C[C@H](Cc4ccc(Cl)cc4)N(C)C(=O)[C@H](COC)NC(=O)[C@@H]3C)cc2)C1")
"false (0)"
>>> classification("COC[C@@H]1NC(=O)[C@H](C)N(Cc2cccnc2Oc2ccc(-c3cnc(CN(C)C)n3C)cc2)C(=O)C[C@@H](Cc2ccccc2)C(=O)N(C)[C@@H](C)CNC(=O)C[C@H](Cc2ccc(Cl)cc2)N(C)C1=O")
"false (0)"

Does the reported IC50 of the following compound sit strictly below 2 nM? COC[C@@H]1NC(=O)[C@H](C)N(Cc2ccc(Cl)cc2Oc2ccc(-n3cnc(CN(C)C)c3C)cc2)C(=O)C[C@@H](Cc2ccccc2)C(=O)N(C)[C@H]2CCCC[C@@H]2NC(=O)C[C@H](Cc2ccc(Cl)cc2)N(C)C1=O false (0)

Find out if reported IC50 for COC[C@@H]1NC(=O)[C@H](CC(=O)OC(C)(C)C)N(Cc2ccc(Cl)cc2Oc2ccc(-c3cnc(CN(C)C)n3C)cc2)C(=O)C[C@@H](Cc2ccccc2)C(=O)N(C)[C@@H](C)CNC(=O)C[C@H](Cc2ccc(Cl)cc2)N(C)C1=O is less than 2 nM false (0)

# strict comparison: is reported IC50 < 2 nM? input = COC[C@@H]1NC(=O)[C@H](CC(=O)O)N(Cc2ccc(Cl)cc2Oc2ccc(-c3cnc(CN(C)C)n3C)cc2)C(=O)C[C@@H](Cc2ccccc2)C(=O)N(C)[C@@H](C)CNC(=O)C[C@H](Cc2ccc(Cl)cc2)N(C)C1=O true (1)

In the record for C[C@H]1C(=O)N[C@@H](COC(=O)C(C)(C)C)C(=O)N(C)[C@@H](Cc2ccc(Cl)cc2)CC(=O)N[C@H]2CCCC[C@@H]2N(C)C(=O)[C@H](Cc2ccccc2)CC(=O)N1Cc1ccc(Cl)cc1Oc1ccc(-c2cnc(CN(C)C)n2C)cc1 , is IC50 less than 2 nM? false (0)

Field: below-cutoff. Rule: recorded IC50 strictly less than 2 nM. Subject: COC[C@@H]1NC(=O)[C@H](C)N(Cc2ccc(Cl)cc2Oc2ccc(-c3c(C)nc(CN4CCCC4)n3C)cc2)C(=O)C[C@@H](Cc2ccccc2)C(=O)N(C)[C@@H](C)CNC(=O)C[C@H](Cc2ccc(Cl)cc2)N(C)C1=O false (0)

Is the reported IC50 for CCC[C@@H]1CC(=O)N(Cc2ccc(Cl)cc2Oc2ccc(-c3cnc(CN(C)C)n3C)cc2)[C@@H](C)C(=O)N[C@@H](COC)C(=O)N(C)[C@@H](Cc2ccc(Cl)cc2)CC(=O)N[C@H]2CCCC[C@@H]2N(C)C1=O strictly below 2 nM? false (0)

Find out if reported IC50 for COC[C@@H]1NC(=O)[C@H](C)N(Cc2ccc(F)cc2Oc2ccc(-c3cnc(CN(C)C)n3C)cc2)C(=O)C[C@@H](Cc2ccccc2)C(=O)N(C)[C@H]2CCCC[C@@H]2NC(=O)C[C@H](Cc2ccc(Cl)cc2)N(C)C1=O is less than 2 nM false (0)

is_below(IC50, 2 nM) for COC[C@@H]1NC(=O)[C@H](C)N(Cc2ccc(Cl)cc2Oc2cc(F)c(-c3cnc(CN4CCCC4)n3C)c(F)c2)C(=O)C[C@@H](Cc2ccccc2)C(=O)N(C)[C@@H](C)CNC(=O)C[C@H](Cc2ccc(Cl)cc2)N(C)C1=O ? true (1)
